From: paper PMC406516

Biological target: Pharmaceutical-grade albumin Octapharma (Homo sapiens)
Sequence (P02768 25-609): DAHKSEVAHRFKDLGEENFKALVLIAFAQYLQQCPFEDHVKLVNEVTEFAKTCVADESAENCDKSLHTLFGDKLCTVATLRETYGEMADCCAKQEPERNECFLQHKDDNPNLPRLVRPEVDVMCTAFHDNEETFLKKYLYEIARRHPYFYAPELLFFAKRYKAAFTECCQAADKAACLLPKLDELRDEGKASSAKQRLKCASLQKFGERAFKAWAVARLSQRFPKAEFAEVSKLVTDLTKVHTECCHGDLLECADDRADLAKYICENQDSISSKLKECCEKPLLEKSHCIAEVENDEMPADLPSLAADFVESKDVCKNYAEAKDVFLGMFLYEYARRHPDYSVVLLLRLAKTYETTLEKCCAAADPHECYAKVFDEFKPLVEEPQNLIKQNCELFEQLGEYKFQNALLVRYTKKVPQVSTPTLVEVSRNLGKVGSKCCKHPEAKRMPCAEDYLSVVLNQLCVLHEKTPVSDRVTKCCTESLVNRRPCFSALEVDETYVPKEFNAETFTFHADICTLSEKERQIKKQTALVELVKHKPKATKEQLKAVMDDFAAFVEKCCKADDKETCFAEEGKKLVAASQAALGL
Experiment: Drug binding by ultrafiltration in pharmaceutical-grade albumin from Octapharma
Settings: human, isolated protein, pH 7.4
Measure: fraction unbound at 30 min
Answers are plain numbers.

## Task Given the compound `C[C@H]1O[C@@H](O[C@H]2[C@@H](O)C[C@H](O[C@H]3[C@@H](O)C[C@H](O[C@H]4CC[C@@]5(C)[C@H](CC[C@@H]6[C@@H]5CC[C@]5(C)[C@@H](C7=CC(=O)OC7)CC[C@]65O)C4)O[C@@H]3C)O[C@@H]2C)C[C@H](O)[C@@H]1O` , what is its reported fraction unbound at 30 min?
## Result 0.1
